- Test system: A549
- protocol_notes: Cytotoxicity against human A549 cells after 68 hrs by MTT assay
- Format: functional, cell-based
- test_parameters: A549, 68 h
readout: pIC50
Schema: pIC50 number; meaning minus log10 of the concentration expressed in molar units.

Problem: Quick one: pIC50 for "COc1ccc(-c2cc(NC(=O)C(Cl)Cl)cc(-c3ccc(OC)cc3)c2)cc1" ?
Solution: 4.68

Problem: Quick one: pIC50 for O=C(Nc1cc(-c2ccc(OC3CCCCO3)cc2)cc(-c2ccc(OC3CCCCO3)cc2)c1)C(Cl)Cl (centres undefined) ?
Solution: 5.56

Problem: Quick one: pIC50 for "CSc1ccccc1-c1cc(NC(=O)C(Cl)Cl)cc(-c2ccccc2SC)c1" ?
Solution: 5.19

Problem: Quick one: pIC50 for "COc1cccc(-c2cccc(NC(=O)C(Cl)Cl)c2)c1" ?
Solution: 5.37

Problem: Quick one: pIC50 for "Cc1ccccc1-c1cccc(NC(=O)C(Cl)Cl)c1" ?
Solution: 5.01

Problem: Quick one: pIC50 for "COc1ccc(-c2cccc(NC(=O)C(Cl)Cl)c2)cc1" ?
Solution: 5.07

Problem: Quick one: pIC50 for "O=C(Nc1cccc(-c2ccccc2)c1)C(Cl)Cl" ?
Solution: 5.05

Problem: Quick one: pIC50 for "COc1ccccc1-c1cccc(NC(=O)C(Cl)Cl)c1" ?
Solution: 4.88

Problem: Quick one: pIC50 for "O=C(Nc1cccc(-c2cccc(NC(=O)C(Cl)Cl)c2)c1)C(Cl)Cl" ?
Solution: 4.32

Problem: Quick one: pIC50 for "O=C(Nc1cccc(-c2ccc(F)cc2)c1)C(Cl)Cl" ?
Solution: 5.11

Problem: Quick one: pIC50 for "O=C(Nc1cccc(-c2cccc(F)c2)c1)C(Cl)Cl" ?
Solution: 5.02

Problem: Quick one: pIC50 for "O=C(Nc1cccc(-c2ccc(Cl)cc2)c1)C(Cl)Cl" ?
Solution: 4.44

Problem: Quick one: pIC50 for "Cc1ccc(-c2cccc(NC(=O)C(Cl)Cl)c2)cc1" ?
Solution: 5.08

Problem: Quick one: pIC50 for "O=C(Nc1cccc(-c2cccc(Cl)c2)c1)C(Cl)Cl" ?
Solution: 4.67

Problem: Quick one: pIC50 for "COc1ccc(-c2cc(NC(=O)C(Cl)Cl)cc(-c3ccc(OC)c(F)c3)c2)cc1F" ?
Solution: 5.71

Problem: Quick one: pIC50 for "O=C(Nc1cccc(-c2ccccc2Cl)c1)C(Cl)Cl" ?
Solution: 4.65

Problem: Quick one: pIC50 for "CSc1ccc(-c2cc(NC(=O)C(Cl)Cl)cc(-c3ccc(SC)cc3)c2)cc1" ?
Solution: 4.65

###

- System: A549
- protocol_notes: Cytotoxicity against human A549 cells after 68 hrs by MTT assay
- Type: functional, cell-based
- test_parameters: A549, 68 h
readout: log10(IC50) (log10 of the value in µM)
Scale: decimal log of IC50, IC50 in µM.

Problem: Quick one: log10(IC50) for "CC(C)c1ccc(-c2cc(NC(=O)C(Cl)Cl)cc(-c3ccc(C(C)C)cc3)c2)cc1" ?
Solution: 1.24

Problem: Quick one: log10(IC50) for "CCOc1cccc(-c2cc(NC(=O)C(Cl)Cl)cc(-c3cccc(OCC)c3)c2)c1" ?
Solution: 0.95

Problem: Quick one: log10(IC50) for "COc1cc(F)cc(-c2cc(NC(=O)C(Cl)Cl)cc(-c3cc(F)cc(OC)c3)c2)c1" ?
Solution: 0.95

Problem: Quick one: log10(IC50) for "Cc1cccc(-c2cccc(NC(=O)C(Cl)Cl)c2)c1" ?
Solution: 0.94

Problem: Quick one: log10(IC50) for "COc1cccc(-c2cc(NC(=O)C(Cl)Cl)cc(-c3cccc(OC)c3)c2)c1" ?
Solution: 0.97

Problem: Quick one: log10(IC50) for "CCOc1ccccc1-c1cc(NC(=O)C(Cl)Cl)cc(-c2ccccc2OCC)c1" ?
Solution: 0.86

Problem: Quick one: log10(IC50) for "O=C(Nc1cccc(-c2ccoc2)c1)C(Cl)Cl" ?
Solution: 0.93

Problem: Quick one: log10(IC50) for "O=C(Nc1cccc(-c2cccs2)c1)C(Cl)Cl" ?
Solution: 1.68

Problem: Quick one: log10(IC50) for "CC(C)Oc1ccc(-c2cc(NC(=O)C(Cl)Cl)cc(-c3ccc(OC(C)C)cc3)c2)cc1" ?
Solution: 0.58

Problem: Quick one: log10(IC50) for "O=C(Nc1cccc(-c2ccccc2C(F)(F)F)c1)C(Cl)Cl" ?
Solution: 0.88

Problem: Quick one: log10(IC50) for O=C([O-])C(Cl)Cl.[Na+] [SODIUM DICHLOROACETATE] ?
Solution: 3.63

Problem: Quick one: log10(IC50) for "O=C(Nc1cccc(-c2ccc(C(F)(F)F)cc2)c1)C(Cl)Cl" ?
Solution: 1.37

Problem: Quick one: log10(IC50) for "CSc1cccc(-c2cc(NC(=O)C(Cl)Cl)cc(-c3cccc(SC)c3)c2)c1" ?
Solution: 1.20

Problem: Quick one: log10(IC50) for "COc1ccccc1-c1cc(NC(=O)C(Cl)Cl)cc(-c2ccccc2OC)c1" ?
Solution: 1.41

Problem: Quick one: log10(IC50) for "O=C(Nc1cccc(-c2ccccc2F)c1)C(Cl)Cl" ?
Solution: 1.12

Problem: Quick one: log10(IC50) for "CCOc1ccc(-c2cc(NC(=O)C(Cl)Cl)cc(-c3ccc(OCC)cc3)c2)cc1" ?
Solution: 0.91

Problem: Quick one: log10(IC50) for "O=C(Nc1cccc(-c2cccc(C(F)(F)F)c2)c1)C(Cl)Cl" ?
Solution: 1.27

Problem: Quick one: log10(IC50) for "O=C(Nc1cc(-c2ccc3c(c2)OCO3)cc(-c2ccc3c(c2)OCO3)c1)C(Cl)Cl" ?
Solution: 0.24

These entries and their values trace back to ChEMBL document CHEMBL2203060.
